- target.system: JNK3 (Homo sapiens, UniProt P53779)
- Sequence (P53779 whole entry): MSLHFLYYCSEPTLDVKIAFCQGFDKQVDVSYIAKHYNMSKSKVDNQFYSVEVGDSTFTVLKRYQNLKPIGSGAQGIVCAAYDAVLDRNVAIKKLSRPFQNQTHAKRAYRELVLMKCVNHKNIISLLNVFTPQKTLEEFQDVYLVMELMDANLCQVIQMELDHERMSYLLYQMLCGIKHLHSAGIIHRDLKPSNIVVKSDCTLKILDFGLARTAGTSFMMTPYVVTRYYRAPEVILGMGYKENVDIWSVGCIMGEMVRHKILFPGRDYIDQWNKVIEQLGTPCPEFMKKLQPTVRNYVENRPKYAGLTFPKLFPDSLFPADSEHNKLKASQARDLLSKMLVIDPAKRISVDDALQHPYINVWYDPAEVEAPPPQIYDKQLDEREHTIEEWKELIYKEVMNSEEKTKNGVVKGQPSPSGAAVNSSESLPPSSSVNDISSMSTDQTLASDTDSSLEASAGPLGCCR
- assay.name: biochemical
- setup.conditions: JNK3 enzyme activity, Table 1; read-out: IC50

{"compound": "NC(=O)N1Cc2nc(-c3ccc(Cl)c(Cl)c3)n(-c3ccnc(N[C@H]4CCCN(C(=O)C5CC5)C4)n3)c2C1 [Compound 16b]", "IC50": "< 30 nM"}

====

- target.system: JNK3 (Homo sapiens, UniProt P53779)
- assay.name: biochemical
pIC50: −log10 of the molar value.

{"compound": "O=C(C1CC1)N1CCC[C@H](Nc2nccc(-n3c(-c4ccc(Cl)c(Cl)c4)nc4c3CN(C(=O)N3CCC(O)CC3)C4)n2)C1 [Compound 16a]", "pIC50": "> 7.52"}

====

- target.system: JNK3 (Homo sapiens)
- assay.name: biochemical
- setup.conditions: JNK3 enzyme activity, Table 2; read-out: IC50
pIC50: −log10 of the molar value.
readout: pIC50

{"molecule": "NC(=O)N1Cc2nc(-c3ccc4c(c3)OCO4)n(-c3ccnc(N[C@H]4CCCN(C(=O)C5CCC5)C4)n3)c2C1 [Compound 16m]", "readout": "pIC50", "measured.result": "5.00 to 7.00"}
